Target: bovine adrenal DBH (Bos taurus, UniProt P15101)
Sequence (P15101 1-610): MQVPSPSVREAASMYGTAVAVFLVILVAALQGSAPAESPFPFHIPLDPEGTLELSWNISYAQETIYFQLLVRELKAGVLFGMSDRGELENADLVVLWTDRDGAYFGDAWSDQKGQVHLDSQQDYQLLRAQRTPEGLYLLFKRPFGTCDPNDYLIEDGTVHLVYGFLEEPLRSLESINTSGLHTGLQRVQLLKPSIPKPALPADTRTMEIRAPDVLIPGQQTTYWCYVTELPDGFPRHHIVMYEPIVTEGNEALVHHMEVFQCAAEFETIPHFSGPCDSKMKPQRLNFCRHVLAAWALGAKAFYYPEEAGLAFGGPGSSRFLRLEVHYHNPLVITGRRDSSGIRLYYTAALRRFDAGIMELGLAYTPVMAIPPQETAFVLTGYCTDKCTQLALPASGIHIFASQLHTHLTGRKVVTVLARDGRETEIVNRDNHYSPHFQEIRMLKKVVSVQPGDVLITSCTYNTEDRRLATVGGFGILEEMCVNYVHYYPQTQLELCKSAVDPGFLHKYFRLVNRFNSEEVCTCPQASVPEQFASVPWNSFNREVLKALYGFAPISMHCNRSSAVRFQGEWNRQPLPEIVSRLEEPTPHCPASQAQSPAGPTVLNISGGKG
Experiment: DBH inhibition assay in vitro
Format: biochemical
Conditions: IC50 value DBH, Table 1; 120 mM tyramine substrate
REPORTED PROPERTY: IC50 (µM)

P: O=C(O)c1ccc(O)c(O)c1
Q: C[C@H]1[C@H](C)CC[C@]2(C(=O)O)CC[C@]3(C)C(=CC[C@@H]4[C@@]5(C)CC[C@H](O)C(C)(C)[C@@H]5CC[C@]43C)[C@H]12
Which record shows the lower IC50: the first, P , or the second, Q ? Give the label under which the chosen entry appears.
Q
(Q: 214 µM, P: 334 µM)
